Source of measurements: ChEMBL document CHEMBL6103647

// values below are reported selectivity ratio
assay name: Therapeutic index, ratio of LD50 for toxicity in ip dosed Kunming mouse assessed as lethal dose to ED50 for analgesic activity against acetic acid-induced Kunming writhing mouse model assessed as effective dose
Type: organism-based
reported conditions: in vivo, read-out: TI

[
  {
    "smiles structure": "CC1(C)[C@@H](O)[C@H](O)[C@H]2[C@](C)(O)[C@@H]3CC[C@@H]4[C@@H](O)[C@@]3(C[C@@H](O)[C@@]21O)C[C@@]4(C)O",
    "result": 24.5
  }
]

In: Quick one: selectivity ratio for CC1(C)[C@@H](O)[C@H](OC(=O)[C@@]2(O)C[C@@H](O)[C@H](O)[C@H](OC(=O)/C=C/c3ccc(O)cc3)C2)[C@H]2[C@](C)(O)[C@@H]3CC[C@@H]4[C@@H](O)[C@@]3(C[C@@H](O)[C@@]21O)C[C@@]4(C)O ?
Out: 1770

====

assay name: Toxicity in ip dosed Kunming mouse assessed as lethal dose
Type: organism-based
reported conditions: in vivo
value type: LD50 (mg/kg)
Report the figure in mg/kg without appending any unit label.

In: Given the entry CC1(C)[C@@H](O)[C@H](OC(=O)[C@@]2(O)C[C@@H](O)[C@H](O)[C@H](OC(=O)/C=C/c3ccc(O)cc3)C2)[C@H]2[C@](C)(O)[C@@H]3CC[C@@H]4[C@@H](O)[C@@]3(C[C@@H](O)[C@@]21O)C[C@@]4(C)O , report its measured LD50.
Out: 131
